# Tested System: von Willebrand factor (VWF), purified plasma-derived, multimeric, native
# Test: SPR (BIAcore), VWF injected under flow over immobilised delCUB, equilibrium fit, in the presence of 10 mM EDTA
Measured Quantity: Kd (nM)
Quick reminder: number only, in nM, skip the unit.

Lab note: measured Kd of ADAMTS13 variant truncated after the 8th TSP-1 repeat (lacking the CUB domains), C-terminal V5-His (from UniProt Q76LX8 75-1191) (enzyme) was 468

###

# Tested System: von Willebrand factor pre-denatured with 1.5 M guanidine-HCl at 37 C for two hours (UniProt P04275)
# Test: SPR (BIAcore), guanidine-HCl denatured VWF injected over immobilised MDTCS, equilibrium fit
Measured Quantity: pKd
By convention, pKd is the negative base-10 log of a molar concentration.

Lab note: measured pKd of ADAMTS13 variant truncated after the spacer domain, C-terminal V5-His (from UniProt Q76LX8 75-685) (enzyme) was 6.47
